target-entity: C-terminal domain (CTD) of human STING (Homo sapiens, UniProt Q86WV6)
Sequence (Q86WV6 155-379): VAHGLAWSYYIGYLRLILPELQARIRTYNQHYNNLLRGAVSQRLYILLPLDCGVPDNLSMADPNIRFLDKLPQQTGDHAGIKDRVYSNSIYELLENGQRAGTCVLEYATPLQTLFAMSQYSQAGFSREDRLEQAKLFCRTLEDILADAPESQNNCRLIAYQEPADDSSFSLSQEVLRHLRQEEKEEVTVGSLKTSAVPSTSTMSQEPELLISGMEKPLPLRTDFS
protocol-notes: STING binding FP assay II
Set-up: recombinant human STING protein (155-379)
conditions-used: 7 nM STING
# key: entry, value: IC50
Give the value, in units of nM, as a plain number.

Inquiry: I have this compound here, CCn1nc(C)cc1C(=O)N=c1n(C)c2cc(C(N)=O)ccc2n1CCC(CCn1c(=NC(=O)c2cc(C)nn2CC)n(C)c2cc(C(N)=O)ccc21)OCC(=O)NCCOCCOCCOCCOCCOc1cccc(C(=O)c2csc([C@@H]3CCCN3C(=O)[C@@H](NC(=O)[C@H](C)NC)C3CCCCC3)n2)c1 (some centres unmarked) , and I need its recorded IC50.
Reply text: 8.4

Consider now this further compound.
Inquiry: I have this compound here, CCn1nc(C)cc1C(=O)N=c1n(C)c2cc(C(N)=O)ccc2n1CCC(CCn1c(=NC(=O)c2cc(C)nn2CC)n(C)c2cc(C(N)=O)ccc21)OCC(=O)NCCOCCOCCOCCOCCNc1cccc2c1C(=O)N(C1CCC(=O)NC1=O)C2=O (centres unmarked) , and I need its recorded IC50.
Reply text: 1.8
